Tested on: PPP1R12A (Mypt1) exon 24 flanking region
Test: Surveyor nuclease assay on genomic PCR products of transfected HEK293T cells
Format: cell-based, human
Settings: constructs tested individually, control ~750 bp
MEASURED ENDPOINT: Surveyor nuclease products (sizes)

MOLECULE: sgRNA6: guide RNA, target … (SEQ ID NO: 10); tested cloned in px601 SaCas9 plasmid (nucleic acid) guide: GUAUCUGAAAGGUGACCGGCGUUUUAGUACUCUGGAAACAGAAUCUACUAAAACAAGGCAAAAUGCCGUGUUUAUCUCGUCAACUUGUUGGCGAGAUUUUU
MEASURED ENDPOINT: Surveyor nuclease products (sizes)
MEASUREMENT: 250/500
--
MOLECULE: sgRNA5: guide RNA, target … (SEQ ID NO: 9); tested cloned in px601 SaCas9 plasmid (nucleic acid) guide: GCAUUAUUUAUUAAUCUGGGAGUUUUAGUACUCUGGAAACAGAAUCUACUAAAACAAGGCAAAAUGCCGUGUUUAUCUCGUCAACUUGUUGGCGAGAUUUUU
MEASURED ENDPOINT: Surveyor nuclease products (sizes)
MEASUREMENT: 120/630
